TEST_PROTOCOL: plasmodial surface anion channel blockers, osmotic lysis – cell-based, P. falciparum Indochina, OD700, 1 h, primary screen (AID 1154)
CONDITION_DESCRIPTION: P. falciparum Indochina infected RBC osmotic lysis, called active from +8 up or from −8 down
Activity calls are given as the source filed them.
Possible outcomes: t (active), f (inactive)

# COMPOUND, DISCRETE_LABEL
rows = [
    ("CCCCC(=C=CC[C@@H](O)c1cccc(OCCO)c1)C[C@@H](O)c1ccccn1", "t"),
    ("O=C1NC(=O)C2C1C=CC(C(O)c1ccc(I)cc1)N2Nc1ccccn1 (centres undefined)", "f"),
    ("C[N+](C)(C)CCCC[C@@H]1NC(=O)[C@H]2C[C@@H](C(=O)NCCCCCCNC(=O)CS)[C@@H](c3ccc(O)cc3)N2C1=O", "f"),
    ("CCCCCCc1nc(-c2ccc(-c3ccc(Cl)c(Cl)c3)o2)cc2c1[Si](C(C)C)(C(C)C)O[C@H]2c1ccccc1", "f"),
]

###

Test system: wheat germ agglutinin (Triticum aestivum), Alexa647-labelled
TEST_PROTOCOL: Alexa647-WGA lectin binding to printed small molecules – biochemical, small-molecule microarray, 635/667 nm fluorescence, artefact control for SMM control-protein annotation, profiling panel (AID 1140);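 further: score merges 667 nm feature emission with signal to noise over triplicate slides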
CONDITION_DESCRIPTION: WGA-A647 binding, 635 nm fluorescence, higher = more signal
# if value of composite z-score reaches 0.3, tag Condition met; if it stays below, tag Condition not met

# MOLECULE, DISCRETE_LABEL
data = [
    ("CC(C)CCC[C@@H](C)[C@H]1CC[C@@]2(C)C3=C(CC[C@]12C)[C@@]1(C)CC[C@H](OC(=O)c2ccc(C(F)(F)F)nc2)C(C)(C)C1CC3 (stereo not given in full)", "Condition not met"),
    ("C=CCN(Cc1ccccc1)C(=O)C(c1cccs1)N(C(=O)/C=C\\C(=O)O)c1ccc(CCOCCO)cc1 (stereo not given)", "Condition not met"),
    ("O=C1O[C@H](c2ccccc2)[C@H](c2ccccc2)N2[C@H]1[C@@H](C(=O)NC[C@H](O)c1ccccc1)[C@]1(C(=O)Nc3ccccc31)[C@H]2c1ccc(O)cc1", "Condition met"),
    ("C#CCN1[C@H](/C=C/C2CC2)[C@H](Cc2ccccc2)OC(=O)[C@@H]1Cc1ccccc1", "Condition not met"),
    ("C[C@H]1C2[C@H](Cc3ccccc3)NC(=O)[C@]23C(=O)NCC(=O)N2CCC[C@H]2C(=O)NC/C=C/CCC/C=C/C3[C@@H]2O[C@]12C (stereo not given in full)", "Condition not met"),
    ("[N-]=[N+]=Nc1ccccc1C[C@]1(C(=O)N2CCCCC2)COC(c2ccc(OCCCO)cc2)=N1", "Condition met"),
    ("CCOc1ccc(N2C(=O)CSC2c2cccc([N+](=O)[O-])c2)cc1 (stereo not given)", "Condition met"),
    ("COCCCNC(=O)[C@@H]1c2ccccc2C(=O)N(Cc2ccccc2)[C@H]1c1ccc(CO)cc1", "Condition met"),
    ("CCCCN1CC=CC23O[C@@H]4/C=C\\CCCOC(=O)C4[C@H]2C(=O)N(CCCO)[C@@H]3C1=O (stereo not given in full)", "Condition not met"),
    ("COc1cc(CO)cc(I)c1O[C@H]1C=C(C(=O)NCCO)C[C@@H](N(C(=O)c2cc3ccccc3oc2=O)C2CCCCCC2)[C@@H]1O", "Condition met"),
    ("O=C1C2C=CC(C(O)C=Cc3ccc([N+](=O)[O-])cc3)N(n3cnnc3)C2C(=O)N1Cc1ccccc1 (stereo not given)", "Condition met"),
    ("C=CC[C@]1(C(=O)NCc2ccccc2)N=C(c2ccc(OCCCO)cc2)O[C@H]1c1ccccc1CN=[N+]=[N-]", "Condition met"),
    ("O=C1OCC=C[C@H]2OC34C=CCN(Cn5nnc6ccccc65)C(=O)[C@H]3N(CCCCCO)C(=O)[C@@H]4[C@@H]12 (stereo not given in full)", "Condition met"),
    ("COCCCNC(=O)[C@@]1(CCS(=O)(=O)c2ccccc2)N=C(c2ccc(OCCCO)cc2)O[C@H]1c1ccccc1N=[N+]=[N-]", "Condition met"),
]

###

TEST_PROTOCOL: calcein-AM signal in unstimulated myeloma cells – cell-based, calcein-AM fluorescence, 48 h, PK04 Diversity Set, profiling panel (AID 1166);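 further: cells grown under basal conditions without added stimulus; test concentration not given here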
CONDITION_DESCRIPTION: RPMI8226 myeloma viability, higher = more signal
Please respond with yes (1) when measured z-score is strictly beneath -0.08, and with no (0) in all other cases.

# COMPOUND, DISCRETE_LABEL
data = [
    ("COC(=O)[C@H](Cc1ccccc1)N[C@H](/C=C/C1CC1)[C@@H](O)Cc1ccccc1", "no (0)"),
    ("O=C(CS)NCCCCCNC(=O)[C@@H]1C[C@@H]2C(=O)NCC(=O)N2[C@@H]1c1cccc(OCCO)c1", "no (0)"),
    ("COC(=O)C(CC#Cc1ccc2c(c1)[C@]1(C(=O)N2)[C@H](c2ccc(O)cc2)N2[C@H](c3ccccc3)[C@H](c3ccccc3)OC(=O)[C@H]2[C@@H]1C(=O)N1CCN(c2ncccn2)CC1)C(=O)OC", "yes (1)"),
    ("O=C(CS)NCCCCCNC(=O)[C@H]1C[C@H]2C(=O)NCC(=O)N2[C@H]1c1cccc(OCCO)c1", "no (0)"),
    ("COCCCNC(=O)[C@@H]1c2ccccc2C(=O)N(Cc2ccccc2)[C@H]1c1ccc(CO)cc1", "no (0)"),
    ("C=C(C)[C@@H]1CC=C(C(O)C2C=CC3C(=O)NC(=O)C3N2Nc2ccc(Cl)cc2Cl)CC1 (stereo partly specified)", "yes (1)"),
    ("O=C(NCCN1CCOCC1)[C@@H]1c2ccccc2C(=O)N(Cc2cc(C(F)(F)F)cc(C(F)(F)F)c2)[C@H]1c1ccc(CO)cc1", "no (0)"),
    ("CCCNC(=O)[C@@]1(Sc2ccc(C)cc2)CC(=O)N(Cc2ccccc2C(F)(F)F)[C@@H]1c1ccc(CO)cc1I", "yes (1)"),
    ("CCCCN1CC=CC23O[C@@H]4/C=C\\CCCOC(=O)C4[C@H]2C(=O)N(CCCCCO)[C@@H]3C1=O (stereo partly specified)", "no (0)"),
    ("COCC(=C=CC[C@H](O)c1ccccc1OCCO)CCO", "no (0)"),
    ("CC1CC/C=C\\[C@H]2OC34C=CCN(Cn5nnc6ccccc65)C(=O)[C@H]3N(CCCCCO)C(=O)[C@@H]4C2C(=O)O1 (stereo partly specified)", "no (0)"),
    ("COc1cc2c(cc1O)C(c1cccs1)N(Cc1ccc([N+](=O)[O-])o1)CC2 (stereo unspecified)", "no (0)"),
    ("COc1ccc(NN2C(C(O)c3ccc(N(C)C)cc3)C=CC3C(=O)N(C4CCCCC4)C(=O)C32)cc1 (stereo unspecified)", "yes (1)"),
    ("C=C(C(=O)CC[C@H](OC(C)=O)c1ccccc1OCCO)C(C)C", "yes (1)"),
]

###

TEST_PROTOCOL: JC-1 mitochondrial signal, unstimulated HepG2 cells – cell-based, JC-1 fluorescence, 24 h, 100 nL compound, profiling panel (AID 1167); further: test concentration not given here
CONDITION_DESCRIPTION: HepG2 mitochondrial potential, higher = more signal
Give fulfilled when the value for z-score is at least -0.2. Give not fulfilled when it is less.

# MOLECULE, DISCRETE_LABEL
measured = [
    ("CC[C@@H]1C=C(C(=O)O)[C@H](c2cccc3ccccc23)N1S(=O)(=O)c1ccc(C)cc1", "not fulfilled"),
    ("Cc1ccc(S[C@]2(C(=O)NCC(C)C)CC(=O)N(Cc3cc(C(F)(F)F)cc(C(F)(F)F)c3)[C@@H]2c2ccc(CO)cc2)cc1", "not fulfilled"),
    ("CCOC(=O)[C@H]1C/C=C/C[C@H](C(=O)OCC)C(=O)O[C@H]2[C@@H](OC)O[C@H](CO)[C@@H](OC(=O)c3ccc(Br)cc3)[C@@H]2OC1=O", "not fulfilled"),
    ("CCCC=C(CCC)[C@@H](NS(=O)(=O)c1ccc(Cl)cc1)c1ccc(C(=O)OC)cc1", "not fulfilled"),
    ("COc1ccc([Si](C)(C)[C@H]2[C@H](CCn3cc([C@H](O)c4ccccc4)nn3)O[C@@]3(C(=O)N(C)c4ccccc43)[C@@H]2C)cc1", "not fulfilled"),
    ("CCCCN1CC=CC23O[C@@H]4C=CCCOC(=O)C4[C@H]2C(=O)N(CCCCCO)[C@@H]3C1=O (stereo not given in full)", "fulfilled"),
    ("COCCCNC(=O)[C@@]1(Cc2ccccc2)N=C(c2ccc(OCCCO)cc2)O[C@H]1c1ccccc1CN=[N+]=[N-]", "fulfilled"),
    ("C=C(/C(=C/C[C@H](OC(=O)c1ccncc1)c1ccc(OCCO)cc1)c1cc(C(=O)OC)ccc1OC)C(C)C", "fulfilled"),
    ("COC(=O)C[C@H]1O[C@@H](CCc2ccccc2)[C@@H](C)[C@@H]1[Si](C)(C)c1ccc(OC)cc1", "fulfilled"),
    ("C=CCN1C(=O)[C@]2(O[C@H](CCO)[C@@H]([Si](C)(C)c3ccc(OC)cc3)[C@@H]2C)c2cc(N(C=O)c3ccccc3)ccc21", "not fulfilled"),
    ("O=C1C2C=CC(C(O)c3c(F)cccc3Cl)N(Nc3ccccc3F)C2C(=O)N1c1ccccc1 (stereo not given)", "not fulfilled"),
    ("CCCC(=O)N(CCc1c[nH]c2ccccc12)[C@@H]1CC(C(=O)NCCO)=C[C@H](Oc2c(I)cc(CO)cc2OC)[C@H]1O", "fulfilled"),
    ("CCCCCCc1nc(-c2ccc(-c3ccc(Cl)c(Cl)c3)o2)cc2c1[Si](C(C)C)(C(C)C)O[C@H]2c1ccccc1", "fulfilled"),
    ("CCCCN1CC=CC23O[C@@H]4/C=C\\CCCOC(=O)C4[C@H]2C(=O)N(CCCCCO)[C@@H]3C1=O (stereo not given in full)", "not fulfilled"),
    ("C=CC[C@]1(C(N)=O)COC(c2ccc(OCCCO)cc2)=N1", "fulfilled"),
    ("O=C1OCC=C[C@H]2OC34C=CCN(CCN5CCOCC5)C(=O)[C@H]3N(CCO)C(=O)[C@@H]4[C@@H]12 (stereo not given in full)", "not fulfilled"),
    ("O=C1O[C@@H](c2ccccc2)[C@@H](c2ccccc2)N2[C@@H](c3ccc(OCCO)cc3)[C@]3(C(=O)Nc4ccc(C#CCCO)cc43)[C@@H](C(=O)NC[C@H](O)c3ccccc3)[C@H]12", "not fulfilled"),
    ("CCCCC(=C=CC[C@@H](O)c1ccc(CO)o1)CCO", "fulfilled"),
    ("COC(=O)[C@@]1(Cc2ccc(OC)cc2)[C@H]2c3cc(C(=O)N4CCCC4)n(Cc4nc5ccccc5[nH]4)c3C[C@H]2CN1C(=O)c1ccccc1", "fulfilled"),
    ("C=C(CCCC)C(=O)CC[C@H](OC(=O)c1cccnc1)c1ccc(OCCO)cc1", "fulfilled"),
    ("O=C1[C@H]2C=C(I)[C@H](C[C@@H]2OCCCCO)[C@@]12CO2", "not fulfilled"),
    ("CO[C@H]1O[C@H](CO)[C@@H](OC(=O)Nc2cccc(F)c2)[C@H](OC(=O)Nc2ccccc2)[C@H]1OC(=O)Nc1ccccc1", "not fulfilled"),
    ("C=CCOC(=O)[C@H]1[C@@H]2C(=O)O[C@@H](c3ccccc3)[C@@H](c3ccccc3)N2[C@@H](c2ccc(OCCOC(=O)[C@@H]3C[C@@H]4C(=O)N5CCC[C@H]5C(=O)N4[C@@H]3c3cccc(OCCO)c3)cc2)[C@]12C(=O)Nc1ccc(I)cc12", "not fulfilled"),
    ("CCOC(=O)C1=CCC(c2ccc(F)cc2)N(S(=O)(=O)c2ccc(C)cc2)C1 (stereo not given)", "not fulfilled"),
    ("C=CC[C@@]1(C(=O)N2CCCCC2)N=C(c2ccc(OCCCO)cc2)O[C@@H]1c1ccccc1CN=[N+]=[N-]", "fulfilled"),
    ("COC(=O)[C@@]1(CCC(=O)OC(C)(C)C)N=C(c2ccc(OCCCO)cc2)O[C@H]1c1ccccc1", "not fulfilled"),
    ("CCC(CC)C(O)C1C=CC2C(=O)N(c3ccccc3)C(=O)C2N1Nc1ccccc1 (stereo not given)", "not fulfilled"),
    ("O=C1OCCC/C=C\\[C@H]2OC34C=CCN(c5ccc6ccccc6c5)C(=O)[C@H]3N(CCCCCO)C(=O)[C@@H]4C12 (stereo not given in full)", "fulfilled"),
    ("NCCCCCCNC(=O)[C@H]1C[C@H]2C(=O)N[C@@H](Cc3ccccc3)C(=O)N2[C@H]1c1cccc(OCCO)c1", "not fulfilled"),
    ("COc1ccc(C(=O)Nc2cccc(CN3C(=O)[C@]4(O[C@H](CCn5cc(CCO)nn5)[C@@H]([Si](C)(C)c5ccc(OC)cc5)[C@@H]4C)c4ccccc43)c2)cc1", "not fulfilled"),
]

The values you see were collected from PubChem BioAssay.
